system: CCRF-CEM; assay: NCI tumour cell line growth inhibition, 48 h
Active and inactive are the calls of the source. Cut-off read from the data, not from the text of the source: active = GI50 up to about 1.1 µM and inactive = higher.

MOLECULE	GI50
CC(=O)Nc1c(S(=O)(=O)c2ccccc2)c(C)c(C)n1CCN(C)C	> 100 µM (inactive)
COC(=O)N/N=C(\c1nc2ccc(Cl)cc2nc1O)C(O)c1ccc([N+](=O)[O-])cc1 (stereo not given)	89.7 µM (inactive)
Cc1nnc(SCc2nc(C#N)c(C#N)nc2CSc2nnc(C)s2)s1	1.98 µM (inactive)
CC(C)=CCc1c2c(c(O)c3c(=O)c4c(oc13)-c1ccc(O)cc1OC4C=C(C)C)C=CC(C)(C)O2 (stereo not given)	3.99 µM (inactive)
Cc1c2c(cc3c(=O)ccn(CCN(C)C)c13)c(=O)ccn2CCN(C)C	5.87 µM (inactive)
